Read-out: Peroxisomal acyl-coenzyme A oxidase 1 (ACOX1) gene, ACOX1 (gene 51)
Experiment: LTEA_HepaRG_ACOX1: Life Technologies and Expression Analysis (LTEA) Assay for Peroxisomal acyl-coenzyme A oxidase 1 (ACOX1) gene using HepaRG (AID 2283467)
Run Conditions: mRNA level, 48 h; actives raise or lower the signal
Activity calls are given as the source filed them. How the source made its calls: active means hit-call score of the fitted dose curve at least 0.9, where 1 is the maximum; inactive means score below 0.9.
Please state which outcome applies, choosing from active, inactive

The examples below pair each entry with its known result.
Molecule	Answer Label
CC(N)=O	inactive
O=NO	inactive
CC(=O)S[C@H](C(=O)N[C@H]1Cc2ccccc2[C@H]2CCC[C@@H](C(=O)O)N2C1=O)C(C)C	inactive
NC(=Nc1ccccc1)Nc1ccccc1	inactive
CC(C)(C)c1ccccc1	inactive

Problem: Which outcome was assigned to CCCCCCC(C=O)=Cc1ccccc1 in this test?
Result: inactive

Problem: Which outcome was assigned to CC(=O)CC(c1ccccc1)c1c(O)c2ccccc2oc1=O (centres undefined) in this test?
Result: inactive

Problem: Which outcome was assigned to CCCCC(CC)CO (centres undefined) in this test?
Result: inactive

Problem: Which outcome was assigned to CC(C)NCC(O)c1ccc(O)c(O)c1 (centres undefined) in this test?
Result: active

Problem: Which outcome was assigned to CCCCCCCC(=O)OC in this test?
Result: inactive

Problem: Which outcome was assigned to CC(C)c1cccc(C(C)C)c1NC(=O)NS(=O)(=O)c1cc(C(C)(C)O)co1 in this test?
Result: inactive

Problem: Which outcome was assigned to O=C(O)CN(CC(=O)O)CC(=O)O in this test?
Result: inactive

Problem: Which outcome was assigned to COC(=O)CCCC(=O)OC in this test?
Result: inactive

Problem: Which outcome was assigned to COc1ccc(OC(F)(F)F)cc1CN[C@H]1CCCN[C@H]1c1ccccc1 in this test?
Result: active

Problem: Which outcome was assigned to CC(=O)OCC(COC(C)=O)OC(C)=O in this test?
Result: inactive

Problem: Which outcome was assigned to CN(C)C(=O)NC1(c2ccccc2)CCN(CC[C@@]2(c3ccc(F)c(F)c3)CN(C(=O)c3ccccc3)CCO2)CC1 in this test?
Result: inactive

Problem: Which outcome was assigned to CCN(CC)CCOc1ccc(C(=C(Cl)c2ccccc2)c2ccccc2)cc1 in this test?
Result: active

Problem: Which outcome was assigned to CCCCC(CC)COC(=O)CCCCCCCC(=O)OCC(CC)CCCC (centres undefined) in this test?
Result: inactive

Problem: Which outcome was assigned to OCC(O)CO in this test?
Result: inactive

====

Read-out: Macrophage colony-stimulating factor (MCSF), CSF1 (gene 1435)
Experiment: BSK_CASM3C_MCSF: BioMAP Diversity Plus: CASM3C Assay for Macrophage colony-stimulating factor (MCSF) Biomarker Activity (AID 2283044);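 further: M-CSF protein amount quantified by ELISA after 24 h exposure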
Run Conditions: primary human coronary artery smooth muscle cells; actives raise or lower the signal
Activity calls are given as the source filed them. The calls were made as follows: active = hit-call score of the fitted dose curve at least 0.9, where 1 is the maximum; inactive = score below 0.9.
Assay Readout: outcome

These solved cases illustrate the format of a correct answer.
Compound	outcome
O=C1CCCCC1	inactive
c1ccc2occc2c1	inactive
Cc1occc(=O)c1O	inactive
C/C=C/c1ccc(OC)cc1	inactive

Problem: Return outcome (reported value) for this compound: C#CC(O)C(CC)CCCC (stereo not given)
Result: inactive

Problem: Return outcome (reported value) for this compound: COC(=O)CCC(=O)OC
Result: inactive

Problem: Return outcome (reported value) for this compound: OCC(O)CO
Result: inactive

Problem: Return outcome (reported value) for this compound: CCCC[C@H]1CN(CC2CCOCC2)C(=O)OC12CCN(C1(C)CCN(C(=O)c3c(C)ncnc3C)CC1)CC2
Result: inactive

Problem: Return outcome (reported value) for this compound: CCC(C)N(C)C(=O)c1cc2ccccc2c(-c2ccccc2Cl)n1 (stereo not given)
Result: inactive

Problem: Return outcome (reported value) for this compound: C/C=C/C=C/C(=O)O
Result: inactive

src = PubChem BioAssay (EPA / NIEHS)
